The measurements presented in this section are drawn from PubChem BioAssay AID2060897.

- Tested on: 966289-007-R4-J1-PDC complex spheroid viability
- TEST PROTOCOL: Anticancer human tumor 966289-007-R4-J1-PDC patient-derived pancreatic adenocarcinoma cell line growth inhibition [RAS]
- RECORDED CONDITIONS: second compound 0.01 µM; first compound 0.0316 µM; stronger effect = lower value
MEASURE NAME: viability, T/C (%)
Please respond with the number in % and leave the unit unwritten.

# COMPOUND, UNIT SPEC, viability, T/C
records = [
    ("CCC(CC)c1cc(NC2CCC(N)C2)n2nccc2n1 (stereo not given) + C=CC(=O)N1CCN(c2nc(OCC3CCCN3C)nc3c(F)c(-c4nc(N)cc(C)c4C(F)(F)F)c(Cl)cc23)C(C)C1", "%", 99.5),
    ("CC(C)n1nc(-c2ccc3oc(N)nc3c2)c2c(N)ncnc21 + C=CC(=O)N1CCN(c2nc(OCC3CCCN3C)nc3c(F)c(-c4nc(N)cc(C)c4C(F)(F)F)c(Cl)cc23)C(C)C1", "%", 51.5),
]

Exam item: Requested read-out viability, T/C, target or system 966289-007-R4-J1-PDC complex spheroid viability, entry Cc1nc(N2CCC3(CC2)COC(C)C3N)c(CO)nc1Sc1ccnc(N)c1Cl (stereo not given) + C=CC(=O)N1CCN(c2nc(OCC3CCCN3C)nc3c(F)c(-c4nc(N)cc(C)c4C(F)(F)F)c(Cl)cc23)C(C)C1
Marked response: 109

Exam item: Requested read-out viability, T/C, target or system 966289-007-R4-J1-PDC complex spheroid viability, entry O=C(c1ccc(F)c(F)c1Nc1ccc(I)cc1F)N1CC(O)([C@@H]2CCCCN2)C1 + C=CC(=O)N1CCN(c2nc(OCC3CCCN3C)nc3c(F)c(-c4nc(N)cc(C)c4C(F)(F)F)c(Cl)cc23)C(C)C1
Marked response: 71.2

Exam item: Requested read-out viability, T/C, target or system 966289-007-R4-J1-PDC complex spheroid viability, entry C[C@@H](NC(=O)c1ncnc(N)c1Cl)c1ncc(C(=O)Nc2cc(C(F)(F)F)c(Cl)cn2)s1 + C=CC(=O)N1CCN(c2nc(OCC3CCCN3C)nc3c(F)c(-c4nc(N)cc(C)c4C(F)(F)F)c(Cl)cc23)C(C)C1
Marked response: 112

----------
- System: 966289-007-R4-J1-PDC complex spheroid viability
- TEST PROTOCOL: Anticancer human tumor 966289-007-R4-J1-PDC cell line growth inhibition [RAS];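 note: spheroids exposed to agents for one week before readout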
- RECORDED CONDITIONS: curve of first compound; second compound 0.03 µM
MEASURE NAME: IC50

Study these solved cases before continuing.
# MOLECULE, RESULT VALUE
measured = [
    ("C[C@@H](NC(=O)c1ncnc(N)c1Cl)c1ncc(C(=O)Nc2cc(C(F)(F)F)c(Cl)cn2)s1 + CCn1c(-c2cc(N3CCN(C)CC3)cnc2C(C)OC)c2c3cc(ccc31)-c1csc(n1)CC(NC(=O)C1CC1C)C(=O)N1CCCC(N1)C(=O)OCC(C)(C)C2", "> 10000 nM"),
    ("CC1(O)CCCC1n1c(=O)c(C(F)F)cc2cnc(NC3CCN(S(C)(=O)=O)CC3)nc21 (centres undefined) + CCn1c(-c2cc(N3CCN(C)CC3)cnc2C(C)OC)c2c3cc(ccc31)-c1csc(n1)CC(NC(=O)C1CC1C)C(=O)N1CCCC(N1)C(=O)OCC(C)(C)C2", "92.8 nM"),
    ("C=CC(=O)N1CCN(c2nc(OCC3CCCN3C)nc3c(F)c(-c4nc(N)cc(C)c4C(F)(F)F)c(Cl)cc23)C(C)C1 (centres undefined) + CCn1c(-c2cccnc2C(C)OC)c2c3cc(ccc31)N1CCOC(CC(NC(=O)C(C(C)C)N(C)C(=O)C3(F)CCN(C(=O)C#CC(C)(C)N(C)C)CC3)C(=O)N3CCCC(N3)C(=O)OCC(C)(C)C2)C1", "> 1000 nM"),
    ("C[C@@H](NC(=O)c1ncnc(N)c1Cl)c1ncc(C(=O)Nc2cc(C(F)(F)F)c(Cl)cn2)s1 + CCn1c(-c2cccnc2C(C)OC)c2c3cc(ccc31)N1CCOC(CC(NC(=O)C(C(C)C)N(C)C(=O)C3(F)CCN(C(=O)C#CC(C)(C)N(C)C)CC3)C(=O)N3CCCC(N3)C(=O)OCC(C)(C)C2)C1", "> 10000 nM"),
]

Exam item: Any idea what IC50 was measured for CC(Nc1ccc2c(c1)OCCn1cc(N3C(=O)OCC3C(F)F)nc1-2)C(N)=O (centres undefined) + CCn1c(-c2cccnc2C(C)OC)c2c3cc(ccc31)N1CCOC(CC(NC(=O)C(C(C)C)N(C)C(=O)C3(F)CCN(C(=O)C#CC(C)(C)N(C)C)CC3)C(=O)N3CCCC(N3)C(=O)OCC(C)(C)C2)C1 ?
Marked response: > 10000 nM

Exam item: Any idea what IC50 was measured for CCC(CC)c1cc(NC2CCC(N)C2)n2nccc2n1 (centres undefined) + CCn1c(-c2cccnc2C(C)OC)c2c3cc(ccc31)N1CCOC(CC(NC(=O)C(C(C)C)N(C)C(=O)C3(F)CCN(C(=O)C#CC(C)(C)N(C)C)CC3)C(=O)N3CCCC(N3)C(=O)OCC(C)(C)C2)C1 ?
Marked response: 1070 nM

Exam item: Any idea what IC50 was measured for O=C(c1ccc(F)c(F)c1Nc1ccc(I)cc1F)N1CC(O)([C@@H]2CCCCN2)C1 + CCn1c(-c2cc(N3CCN(C)CC3)cnc2C(C)OC)c2c3cc(ccc31)-c1csc(n1)CC(NC(=O)C1CC1C)C(=O)N1CCCC(N1)C(=O)OCC(C)(C)C2 ?
Marked response: 124 nM

Exam item: Any idea what IC50 was measured for Nc1ccn(C2OC(CO)C(O)C2(F)F)c(=O)n1 (centres undefined) + CCn1c(-c2cc(N3CCN(C)CC3)cnc2C(C)OC)c2c3cc(ccc31)-c1csc(n1)CC(NC(=O)C1CC1C)C(=O)N1CCCC(N1)C(=O)OCC(C)(C)C2 ?
Marked response: 6.34 nM

Exam item: Any idea what IC50 was measured for Nc1ccn(C2OC(CO)C(O)C2(F)F)c(=O)n1 (centres undefined) + CCn1c(-c2cccnc2C(C)OC)c2c3cc(ccc31)N1CCOC(CC(NC(=O)C(C(C)C)N(C)C(=O)C3(F)CCN(C(=O)C#CC(C)(C)N(C)C)CC3)C(=O)N3CCCC(N3)C(=O)OCC(C)(C)C2)C1 ?
Marked response: 4.23 nM
